- Tested on: DMS 273 small cell lung
- ASSAY NAME: NCI tumour cell line growth inhibition, 48 h
Task for the reader: assign each of the following molecules its reported TGI.

Qu. Quick one: TGI for CCOC(=O)C12CCCC1(O)N(NC(=O)OC)C(C)=C2C(=O)OC (stereo unspecified) ?
Ans. > 100 µM

Qu. Field request: TGI | item: CC(C)(C)C1=CC(=N/N=c2\scc(-c3ccccc3)n2-c2ccccc2)C=C(C(C)(C)C)C1=O
Ans. > 100 µM

Qu. Bench note: what TGI did c1ccc(SC(Sc2ccccc2)=C2CCC2)cc1 show?
Ans. > 100 µM

Qu. Reported TGI, molecule Cc1cccc(-c2nnc3s/c(=C\c4ccc(N(C)C)cc4)c(=O)n23)c1 : ____
Ans. > 100 µM

Qu. # lookup: TGI of O=S1(=O)c2ccccc2N(O)C2=NCCN21
Ans. > 100 µM

Qu. I'd like to know its TGI. The molecule in question is O=C1CCCCCCC2=C1C(Sc1ccccc1)CC2 (stereo unspecified)
Ans. 61.7 µM

----------
- System: SF-268 CNS
- ASSAY NAME: NCI tumour cell line growth inhibition, 48 h
Record form. Attribute: TGI. Fill in for each entry.

Qu. Endpoint output: TGI of COc1cc2nc(N3CCCN(C)CC3)nc(NC3CCN(Cc4ccccc4)CC3)c2cc1OC . Value?
Ans. 8.65 µM

Qu. Param item = NC(=O)c1cc(N2CC2)c([N+](=O)[O-])cc1[N+](=O)[O-] ; retrieve measured TGI.
Ans. > 200 µM

Qu. Which TGI reading was recorded for the molecule COC(=O)C1=CO[C@@H](C)[C@@H]2Cn3ccc4c5ccccc5nc-4c3C[C@H]12 ?
Ans. > 100 µM

Qu. Suppose we examine the molecule CCC(CC)n1cnc2c(-c3cnc(N)cn3)nc(N3CC4CCC(C3)O4)nc21 ; what TGI value has been reported?
Ans. > 100 µM

Qu. What does the data say about its TGI? Entry: CCCc1nn(C)c2c(=O)[nH]c(-c3cc(S(=O)(=O)N4CCN(C)CC4)ccc3OCC)nc12
Ans. > 100 µM

Qu. Can you look up the measured TGI of CC(NC1=NCCO1)c1ccccc1Cl (stereo unspecified) for me?
Ans. > 100 µM

----------
Task for the reader: assign each of the following molecules its reported TGI.
- Test system: K-562 leukemia
- ASSAY NAME: NCI tumour cell line growth inhibition, 48 h

Qu. Requested field: TGI. Item: NCCCCC(NC(=O)C(N)CCCN=C(N)N)C(=O)NC(CCCCN)C(=O)NC(CCCN=C(N)N)C(=O)NC(CCCN=C(N)N)C(=O)NC(CCC(N)=O)C(=O)NC(CCCN=C(N)N)C(=O)NC(CCCN=C(N)N)C(=O)NC(CCCN=C(N)N)C(=O)NCC(=O)NCC(=O)O (centres undefined)
Ans. > 50 µM

Qu. Which TGI reading was recorded for the molecule CN1C(=O)CCC(N2C(=O)c3cccc(NCCOCCOCCNC(=O)c4cc5c(o4)C(=O)c4ccccc4C5=O)c3C2=O)C1=O (centres undefined) ?
Ans. 6.52 µM

Qu. Look up TGI for this molecule: COc1ccc(CCN2CCN(CCCc3ccccc3)CC2)cc1
Ans. > 100 µM

Qu. Please look up its TGI: CC(C)(C)c1cc(/C=C(\C#N)C2=NCCO2)cc(C(C)(C)C)c1O
Ans. 16.5 µM

Qu. Entry C(=N\Nc1ncc(-c2cc3cc4c(cc3o2)OCO4)s1)/c1ccco1 : reported TGI = ?
Ans. > 100 µM

Qu. Quick one: TGI for COc1ccc(/[N+]([O-])=C/c2ccc(OC(=S)S)c(OC)c2)cc1 ?
Ans. > 100 µM

Qu. Form field: reported TGI of CCC[CH2][Sn](=[O])[CH2]CCC
Ans. > 50 µM

Qu. # TGI lookup, item NC(=S)N/N=C/c1ccc(OC(=O)COc2cc(Cl)c(Cl)cc2Cl)cn1
Ans. > 100 µM

Qu. Please look up its TGI: COC(=O)CCC(=O)Nc1ccc(Cl)cc1C
Ans. > 100 µM
